target: human TNFα (Homo sapiens, UniProt P01375); construct: purchased Biosource, Camarillo, Calif; assay: p55 Receptor/IgG Fusion Protein Binding Assay (inhibition of TNFα capture by p55-Ig coated plate); conditions: peptide 1 mM; TNFα 25 ng/ml; read-out: inhibition of binding of TNFα to p55TNFr-IgG chimeric construct
Sequence (P01375 77-233 limits assumed): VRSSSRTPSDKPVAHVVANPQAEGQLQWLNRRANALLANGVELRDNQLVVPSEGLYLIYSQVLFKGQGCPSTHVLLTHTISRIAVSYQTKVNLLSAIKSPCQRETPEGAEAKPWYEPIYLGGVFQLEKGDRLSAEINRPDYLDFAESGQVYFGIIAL
Where a SMILES comes first, the peptide text is derived from it.
Response key: true (1) means inhibition at 1000 µM >= 60%; false (0) means inhibition at 1000 µM < 60%.

Problem: Quick check, inhibition at 1000 µM >= 60%? CC(C)C[C@H](NC(=O)[C@H](CCCNC(=N)N)NC(=O)[C@H](C)NC(=O)[C@@H](NC(=O)[C@H](CO)NC(=O)CNC(=O)[C@@H]1CCCN1C(=O)[C@@H](N)CCC(=O)O)[C@@H](C)O)C(=O)N[C@@H](CCCNC(=N)N)C(=O)N[C@@H](CCC(=O)O)C(=O)N[C@@H](Cc1ccc(O)cc1)C(=O)N[C@@H](Cc1ccc(O)cc1)C(=O)N[C@@H](CC(=O)O)C(=O)N[C@@H](CCC(N)=O)C(=O)N[C@H](C(N)=O)[C@@H](C)O [SEQ ID NO:27] (H-EPGSTARLREYYDQT-NH2)
Solution: true (1)

Problem: Quick check, inhibition at 1000 µM >= 60%? C[C@H](NC(=O)[C@@H](NC(=O)[C@H](CO)NC(=O)[C@@H]1CCCN1C(=O)[C@H](CCC(=O)O)NC(=O)[C@@H]1CCCN1C(=O)[C@@H](NC(=O)[C@@H]1CCCN1C(=O)[C@H](CCC(N)=O)NC(=O)[C@@H](NC(=O)[C@H](Cc1c[nH]cn1)NC(=O)[C@H](CCC(N)=O)NC(=O)[C@@H](N)CO)[C@@H](C)O)[C@@H](C)O)[C@@H](C)O)C(=O)N1CCC[C@H]1C(=O)N[C@@H](CO)C(N)=O [SEQ ID NO:58] (H-SQHTQPTPEPSTAPS-NH2)
Solution: true (1)

Problem: Quick check, inhibition at 1000 µM >= 60%? CC(C)C[C@H](NC(=O)[C@H](Cc1ccccc1)NC(=O)[C@H](Cc1ccccc1)NC(=O)CNC(=O)[C@H](C)N)C(=O)N[C@@H](CCCNC(=N)N)C(=O)N[C@@H](CCC(=O)O)C(=O)N[C@@H](CC(N)=O)C(=O)N[C@@H](CCC(=O)O)C(=O)N[C@@H](C)C(=O)N[C@H](C(=O)N[C@@H](CO)C(=O)N[C@@H](C)C(=O)N[C@@H](CO)C(=O)N[C@@H](CC(N)=O)C(N)=O)C(C)C [SEQ ID NO:19] (H-AGFFLRENEAVSASN-NH2)
Solution: false (0)

Problem: Quick check, inhibition at 1000 µM >= 60%? CC(C)C[C@H](NC(=O)[C@H](C)NC(=O)[C@H](CC(C)C)NC(=O)[C@H](CO)NC(=O)[C@H](C)NC(=O)[C@H](CC(N)=O)NC(=O)[C@H](Cc1ccccc1)NC(=O)[C@H](C)NC(=O)[C@H](CCC(N)=O)NC(=O)[C@H](Cc1ccccc1)NC(=O)[C@H](CC(C)C)NC(=O)[C@H](CC(N)=O)NC(=O)[C@H](CCC(=O)O)NC(=O)[C@@H](N)CO)C(=O)N[C@@H](CC(N)=O)C(N)=O [SEQ ID NO:24] (H-SENLFQAFNASLALN-NH2)
Solution: false (0)

Problem: Quick check, inhibition at 1000 µM >= 60%? CSCC[C@H](NC(=O)[C@@H]1CCCN1C(=O)[C@H](CC(C)C)NC(=O)[C@H](CC(C)C)NC(=O)[C@H](Cc1ccccc1)NC(=O)[C@H](CO)NC(=O)[C@@H](NC(=O)[C@H](CO)NC(=O)[C@@H]1CCCN1C(=O)[C@H](C)NC(=O)[C@@H](NC(=O)[C@H](CO)NC(=O)[C@@H]1CCCN1)[C@@H](C)O)[C@@H](C)O)C(=O)NCC(=O)N1CCC[C@H]1C(N)=O [SEQ ID NO:61] (H-PSTAPSTSFLLPMGP-NH2)
Solution: true (1)

Problem: Quick check, inhibition at 1000 µM >= 60%? CC[C@H](C)[C@H](NC(=O)[C@H](CCC(=O)O)NC(=O)[C@@H](NC(=O)[C@H](CCC(N)=O)NC(=O)CN)C(C)C)C(=O)N[C@@H](CO)C(=O)N[C@@H](CO)C(=O)N[C@@H](C)C(=O)N[C@H](C(=O)N[C@H](C(=O)N[C@@H](CC(=O)O)C(=O)N[C@@H](CCCNC(=N)N)C(=O)N[C@@H](CC(=O)O)C(=O)N[C@H](C(=O)N[C@H](C(N)=O)C(C)C)[C@@H](C)O)C(C)C)[C@@H](C)O [SEQ ID NO:8] (H-GQVEISSATVDRDTV-NH2)
Solution: false (0)

Problem: Quick check, inhibition at 1000 µM >= 60%? CC(C)C[C@H](NC(=O)[C@H](Cc1c[nH]cn1)NC(=O)[C@H](CC(N)=O)NC(=O)[C@H](CCC(=O)O)NC(=O)[C@H](CO)NC(=O)[C@H](C)NC(=O)[C@@H](NC(=O)[C@H](Cc1ccccc1)NC(=O)[C@H](CO)NC(=O)CNC(=O)[C@H](CO)NC(=O)[C@H](CCC(=O)O)NC(=O)[C@H](C)NC(=O)[C@@H](N)CCC(=O)O)[C@@H](C)O)C(=O)N[C@@H](CCCNC(=N)N)C(N)=O [SEQ ID NO:6] (H-EAESGSFTASENHLR-NH2)
Solution: false (0)

Problem: Quick check, inhibition at 1000 µM >= 60%? CC(=O)N[C@@H](CCC(N)=O)C(=O)N[C@@H](Cc1ccc(O)cc1)C(=O)N[C@@H](CCCNC(=N)N)C(=O)N[C@@H](Cc1c[nH]cn1)C(=O)N[C@@H](Cc1ccc(O)cc1)C(=O)N[C@@H](Cc1c[nH]c2ccccc12)C(=O)N[C@@H](CO)C(=O)N[C@@H](CCC(=O)O)C(=O)N[C@@H](CC(N)=O)C(=O)N[C@@H](CC(C)C)C(=O)N[C@@H](Cc1ccccc1)C(=O)N[C@@H](CCC(N)=O)C(=O)N[C@@H](C)C(=O)N[C@@H](Cc1ccccc1)C(=O)N[C@@H](CC(N)=O)C(N)=O
Solution: false (0)

Problem: Quick check, inhibition at 1000 µM >= 60%? C[C@@H](O)[C@H](NC(=O)[C@H](CO)NC(=O)[C@@H]1CCCN1C(=O)[C@H](CCC(=O)O)NC(=O)[C@@H]1CCCN1C(=O)[C@@H](NC(=O)[C@@H]1CCCN1C(=O)[C@H](CCC(N)=O)NC(=O)[C@@H](NC(=O)[C@H](Cc1c[nH]cn1)NC(=O)[C@H](CCC(N)=O)NC(=O)[C@H](CO)NC(=O)[C@H](CCCNC(=N)N)NC(=O)[C@@H](NC(=O)[C@@H](N)CO)[C@@H](C)O)[C@@H](C)O)[C@@H](C)O)C(N)=O [SEQ ID NO:57] (H-STRSQHTQPTPEPST-NH2)
Solution: true (1)

----------
Target: human TNFα (Homo sapiens, UniProt P01375)
Construct: purchased Biosource, Camarillo, Calif
Experiment: p55 Receptor/IgG Fusion Protein Binding Assay (inhibition of TNFα capture by p55-Ig coated plate)
Conditions: peptide 1 mM; TNFα 25 ng/ml; read-out: inhibition of binding of TNFα to p55TNFr-IgG chimeric construct
Experimental: This assay was designed to identify peptides which bind to human TNFα and thereby prevent the capture of the TNFα by a microtiter plate coated with p55-Ig fusion protein. A constant concentration of human TNFα is preincubated with the test peptide and then incubated on the p55-Ig coated microtiter wells. Bound TNFα is detected using a specific antisera and an alkaline phosphatase-conjugated probe. […]
Where a SMILES comes first, the peptide text is derived from it.
reported endpoint: inhibition at 1000 µM (%)
Numeric only. Scale: %

Problem: Bench note: what inhibition at 1000 µM did CC(=O)N[C@@H](CC(C)C)C(=O)N[C@@H](Cc1ccccc1)C(=O)N[C@@H](CCC(N)=O)C(=O)N[C@@H](C)C(=O)N[C@@H](Cc1ccccc1)C(=O)N[C@@H](CC(N)=O)C(=O)N[C@@H](C)C(=O)N[C@@H](CO)C(=O)N[C@@H](CC(C)C)C(=O)N[C@@H](C)C(=O)N[C@@H](CC(C)C)C(=O)N[C@@H](CC(N)=O)C(=O)NCC(=O)N[C@H](C(=O)N[C@H](C(N)=O)C(C)C)[C@@H](C)O [SEQ ID NO:12] (Ac-LFQAFNASLALNGTV-NH2) show?
Solution: 40

----------
target: human TNFα (Homo sapiens); construct: purchased Biosource, Camarillo, Calif; test: p55 Receptor/IgG Fusion Protein Binding Assay (inhibition of TNFα capture by p55-Ig coated plate); details: peptide 1 mM; TNFα 25 ng/ml
Where no end group is shown, it is not given here.
Entries are grouped by inhibition of binding of TNFα to p55TNFr-IgG chimeric construct into these classes: lowest (below 40%), middle (40% to below 70%), highest (70% or more)

Problem: Exam item: assign SEQ ID NO:45: peptide of the invention that inhibits TNFα; sequence not printed (GTFSNTTSSTDIARP; also: C-terminal blocking group) to the correct category.
Solution: highest

Problem: Exam item: assign SEQ ID NO:36: peptide of the invention that inhibits TNFα; sequence not printed (SAEDSTYTQLWNWVP) to the correct category.
Solution: highest

Problem: Exam item: assign SEQ ID NO:52: peptide of the invention that inhibits TNFα; sequence not printed (ASRDAVATSTSPTRS) to the correct category.
Solution: middle

Problem: Exam item: assign SEQ ID NO:46: peptide of the invention that inhibits TNFα; sequence not printed (SNTTSSTDIARPHQI) to the correct category.
Solution: middle

Problem: Exam item: assign SEQ ID NO:50: peptide of the invention that inhibits TNFα; sequence not printed (VAIPGNASRDAVATS) to the correct category.
Solution: lowest

Problem: Exam item: assign SEQ ID NO:37: peptide of the invention that inhibits TNFα; sequence not printed (DSTYTQLWNWVPEAL) to the correct category.
Solution: highest

Problem: Exam item: assign SEQ ID NO:53: peptide of the invention that inhibits TNFα; sequence not printed (DAVATSTSPTRSMAP) to the correct category.
Solution: middle

Problem: Exam item: assign SEQ ID NO:44: peptide of the invention that inhibits TNFα; sequence not printed (AAPGTFSNTTSSTDI) to the correct category.
Solution: lowest

Problem: Exam item: assign SEQ ID NO:34: peptide of the invention that inhibits TNFα; sequence not printed (SDTVADSAEDSTYTQ) to the correct category.
Solution: middle

Problem: Exam item: assign SEQ ID NO:43: peptide of the invention that inhibits TNFα; sequence not printed (PGWYAALSKQEGARL) to the correct category.
Solution: lowest

Problem: Exam item: assign SEQ ID NO:49: peptide of the invention that inhibits TNFα; sequence not printed (ARPHQIANVVAIPGN) to the correct category.
Solution: lowest

Problem: Exam item: assign SEQ ID NO:39: peptide of the invention that inhibits TNFα; sequence not printed (LWNWVPEALSAGSRA) to the correct category.
Solution: middle

Problem: Exam item: assign SEQ ID NO:47: peptide of the invention that inhibits TNFα; sequence not printed (TSSTDIARPHQIANV) to the correct category.
Solution: lowest

Problem: Exam item: assign SEQ ID NO:38: peptide of the invention that inhibits TNFα; sequence not printed (YTQLWNWVPEALSAG) to the correct category.
Solution: middle

Problem: Exam item: assign SEQ ID NO:48: peptide of the invention that inhibits TNFα; sequence not printed (TDIARPHQIANVVAI) to the correct category.
Solution: lowest
